Quick list: TGI per entry.
- Test system: HT29 colon
- procedure_summary: NCI tumour cell line growth inhibition, 48 h
measurement_label: TGI

[[record]]
compound = "CCN(CC)CCC(=O)NC1c2ccccc2Oc2c(C)cccc21 (stereo not drawn)"
measurement_label = "TGI"
recorded_value = "> 100 µM"

[[record]]
compound = "N#CCN1c2ccccc2CCC1Cl (stereo not drawn)"
measurement_label = "TGI"
recorded_value = "> 10 µM"

[[record]]
compound = "CC(C)(/C=N\\O)NO"
measurement_label = "TGI"
recorded_value = "> 10 µM"


====

- Test system: U251 CNS
- procedure_summary: NCI tumour cell line growth inhibition, 48 h
Quick list: log10 of TGI per entry.
measurement_label: log10 of TGI (log10 of the value in µM)

[[record]]
compound = "O=C(OC1CC(n2cc(F)c(=O)[nH]c2=O)OC1CSC(=O)c1ccccc1)c1ccccc1 (configuration not stated)"
study_target = "U251 CNS"
recorded_value = 1.70

[[record]]
compound = "COc1cccc(C2c3cc4c(cc3OC(NNc3ccccc3)C2C)OCO4)c1O (configuration not stated)"
study_target = "U251 CNS"
recorded_value = 1.27

[[record]]
compound = "COc1ccc(C2CC(c3cc(Cl)c(C)cc3O)=NN2c2ccc(S(N)(=O)=O)cc2)cc1OC (configuration not stated)"
study_target = "U251 CNS"
recorded_value = 1.15

[[record]]
compound = "COC(=O)CCCC(=O)NC1=C(Nc2ccc(OC)cc2)C(=O)c2ccccc2C1=O"
study_target = "U251 CNS"
recorded_value = 1.91

[[record]]
compound = "O=C1C=CC(=O)c2c(O)c(NCCCN3CCOCC3)c(Cl)c(O)c21"
study_target = "U251 CNS"
recorded_value = 0.74

[[record]]
compound = "COc1ccc(=[O+]C)c2nssc1-2"
study_target = "U251 CNS"
recorded_value = 1.90

[[record]]
compound = "COc1ccc(/C=C/c2nnc(/C=C/c3ccc(OC)c(OC)c3)o2)cc1OC"
study_target = "U251 CNS"
recorded_value = 1.27

[[record]]
compound = "O=C(Oc1cccc2cccnc12)c1cc2cc(CCl)ccc2oc1=O"
study_target = "U251 CNS"
recorded_value = 1.95

[[record]]
compound = "O=[N+]([O-])c1cccnc1NCC1(CO)CCCC1"
study_target = "U251 CNS"
recorded_value = 1.49

[[record]]
compound = "O=C(/C=C/c1cccc(Br)c1)c1ccc(Cl)cc1"
study_target = "U251 CNS"
recorded_value = 1.27

